Listing of entries alongside the reported growth inhibition.
assay: NCI Yeast Anticancer Drug Screen. Data for the bub3 strain (AID 167); conditions: S. cerevisiae bub3 mutant strain, at 50.0 µM, stronger effect = higher value
Compounds without any hit were thinned out: in the full panel of roughly 79,000, 15% have a hit.

- molecule: "OC(c1cc(-c2ccc(Cl)c(Cl)c2)nc2ccccc12)C1CCCCN1 (centres undefined)"
  resultUnit: "%"
  growth inhibition: 66.3
- molecule: "O=C(O)c1cc2oc(-c3ccccc3)cc2[nH]1"
  resultUnit: "%"
  growth inhibition: 83.8
- molecule: "CN1CCCC(C(=O)OCC(=O)C2(O)CCC3C4CCC5=CC(=O)CCC5(C)C4C(O)CC32C)C1 (centres undefined)"
  resultUnit: "%"
  growth inhibition: 12.4
- molecule: "CCc1c(O)sc2c(c1=O)C(=NCC(C)C)CC(C)(C)N2"
  resultUnit: "%"
  growth inhibition: 10.8
- molecule: "CCCCCCCCCCCCCC1OC(=O)C(C)=C1C(=O)O (centres undefined)"
  resultUnit: "%"
  growth inhibition: 27.4
- molecule: "Cc1cc(N)c2cc(NC(=O)Nc3ccc4nc(C)cc(N)c4c3)ccc2n1"
  resultUnit: "%"
  growth inhibition: 98.7
- molecule: "O=C(CNc1ccc(Cl)cc1)Nn1c(-c2ccccc2)nc2ccccc2c1=O"
  resultUnit: "%"
  growth inhibition: 62.1
- molecule: "O=NN(CCCl)C(=O)Oc1ccc(OC(=O)N(CCCl)N=O)cc1"
  resultUnit: "%"
  growth inhibition: 84.5
- molecule: "CCCN(CCC)c1ccc(Cc2ccc(N(CCC)CCC)cc2N)c(N)c1"
  resultUnit: "%"
  growth inhibition: 96.8
